Biological target: T1, human c-Met (Sino Biological) (human, UniProt P08581 25-932, limits assumed)
T1 construct: Analyte in the Biacore assay; also called antigen (c-Met); printed as "human c-Met antibody (Sino Biological, Beijing, China)"
T1 sequence (P08581 25-932 limits assumed): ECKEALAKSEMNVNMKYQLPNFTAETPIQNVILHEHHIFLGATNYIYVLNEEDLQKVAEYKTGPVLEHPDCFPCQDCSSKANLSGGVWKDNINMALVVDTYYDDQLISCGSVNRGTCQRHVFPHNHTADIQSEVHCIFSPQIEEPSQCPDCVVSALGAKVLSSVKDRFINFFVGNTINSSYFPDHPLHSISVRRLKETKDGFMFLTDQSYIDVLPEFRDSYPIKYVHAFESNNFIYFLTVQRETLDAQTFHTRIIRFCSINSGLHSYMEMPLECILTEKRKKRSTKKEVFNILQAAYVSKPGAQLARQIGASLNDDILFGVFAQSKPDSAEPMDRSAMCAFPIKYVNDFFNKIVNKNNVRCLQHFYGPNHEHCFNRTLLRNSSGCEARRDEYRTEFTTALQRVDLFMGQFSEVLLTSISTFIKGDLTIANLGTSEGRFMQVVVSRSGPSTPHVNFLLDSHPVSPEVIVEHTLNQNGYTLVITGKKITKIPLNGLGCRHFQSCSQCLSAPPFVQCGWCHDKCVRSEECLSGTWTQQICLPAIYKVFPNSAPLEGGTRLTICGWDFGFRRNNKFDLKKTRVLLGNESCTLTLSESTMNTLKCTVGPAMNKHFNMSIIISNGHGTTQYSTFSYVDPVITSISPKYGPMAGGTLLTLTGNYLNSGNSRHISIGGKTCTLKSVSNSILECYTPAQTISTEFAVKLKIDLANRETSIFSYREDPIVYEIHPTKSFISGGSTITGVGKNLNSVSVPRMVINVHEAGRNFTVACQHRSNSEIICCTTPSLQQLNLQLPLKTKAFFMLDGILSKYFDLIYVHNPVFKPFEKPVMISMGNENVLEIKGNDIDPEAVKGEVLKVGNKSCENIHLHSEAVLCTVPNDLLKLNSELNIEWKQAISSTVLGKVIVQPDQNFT
Test: SPR (Biacore T200), IgG captured on Protein A CM5 chip, c-Met 0.15-2 nM as analyte
Description: The candidate antibodies selected in Example 4 were measured for binding affinity for the antigen (c-Met) with the aid of Biacore. […] The anti-c-Met antibodies to be analyzed were immobilized on Protein A CM5 chips (GE Healthcare, Little Chalfont, UK) through which human c-Met antibody (Sino Biological, Beijing, China) with various concentrations ranging 0.15 to 2 nM was allowed to pass, thereby acquiring sensorgrams. […]
Response field label: string, one of Fulfilled (Relative KD to VMDO2 VH0/Vk0 strictly below 0.9) or Not fulfilled.

Lab log: compare recorded Relative KD to VMDO2 VH0/Vk0 with 0.9; is it strictly lower for VH6/Vk2 (antibody, IgG1, V domains shown, Full IgG1/kappa expressed in HEK 293 EBNA cells) VH: QVQLVQSGAEVKKPGSSVKVSCKASGYSFPTHWITWVRQAPGQGLEWMGTIDPTDSYNFYGPSFQGRVTITADKSTSTAYMELSSLRSEDTAVYYCARDGNYYDSRGYYYDTFDMWGQGTLVTVSS VL: DIQMTQSPSSLSASVGDRVTITCRASQGISTYLAWYQQKPGKAPKLLIYSASTLESGVPSRFSGSGSGTDFTLTISSLQPEDFATYYCQQADSFPLTFGGGTKVEIK ?
Fulfilled

And then VH2/Vk0 (antibody, IgG1, V domains shown, Full IgG1/kappa expressed in HEK 293 EBNA cells) VH: EVQLVQSGAEVKKPGESLKISCKGSGYSFPTHWITWVRQMPGKGLEWMGTIDPTDSYNFYGPSFQGQVTISADKSISTAYLQWSSLKASDTAMYYCARDGNYYDSRGYYYDTFDMWGQGTLVTVSS VL: DIQMTQSPSFLSASVGDRVTITCRASQGISTYLAWYQQKPGTAPKLLIYSASTLESGVPSRFSGSGSGTDFTLTISSLQPEDSATYYCQQADSFPLTFGGGTKVEIK , what is it?
Not fulfilled

And then VH5/Vk4 (antibody, IgG1, V domains shown, Full IgG1/kappa expressed in HEK 293 EBNA cells) VH: QVQLVQSGAEVKKPGSSVKVSCQGSGYSFPTHWITWVRQAPGQGLEWMGTIDPTDSYNFYGPSFQGRVTITADSSTSTAYMELSSLRSEDTAVYYCARDGNYYDSRGYYYDTFDMWGQGTLVTVSS VL: EIQMTQSPGTLSLSPGERATLSCRASQGISTYLAWYQQKPGQAPRLLIYSASTLESGVPDRFSGSGSGTDFTLTISRLEPEDFATYYCQQADSFPLTFGGGTKVEIK , what is it?
Fulfilled

And then VH6/Vk3 (antibody, IgG1, V domains shown, Full IgG1/kappa expressed in HEK 293 EBNA cells) VH: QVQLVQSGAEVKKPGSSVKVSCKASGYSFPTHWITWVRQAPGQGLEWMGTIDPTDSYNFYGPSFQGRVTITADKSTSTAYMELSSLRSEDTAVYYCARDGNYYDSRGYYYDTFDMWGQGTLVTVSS VL: DIQMTQSPGFLSLSPGERATLSCRASQGISTYLAWYQQKPGQAPRLLIYSASTLESGVPDRFSGSGSGTDFTLTISRLEPEDFATYYCQQADSFPLTFGGGTKVEIK , what is it?
Fulfilled
